# system.tested: human PPARδ (137–441aa) ligand binding domain (Homo sapiens, UniProt Q03181)
# Construct: δ (137–441aa); expressed in transfected cells; host or cells: COS-7
# Sequence (Q03181 137-441): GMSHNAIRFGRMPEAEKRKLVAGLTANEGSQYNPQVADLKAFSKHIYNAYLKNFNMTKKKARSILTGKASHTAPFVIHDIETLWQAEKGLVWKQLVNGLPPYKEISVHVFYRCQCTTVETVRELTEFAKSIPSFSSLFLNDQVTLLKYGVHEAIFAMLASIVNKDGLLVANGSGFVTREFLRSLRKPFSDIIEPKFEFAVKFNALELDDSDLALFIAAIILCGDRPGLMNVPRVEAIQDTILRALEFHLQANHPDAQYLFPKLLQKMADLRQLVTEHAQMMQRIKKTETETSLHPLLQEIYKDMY
# procedure.text: PPAR transfection (Gal4-LBD luciferase reporter) assay, hPPARδ
# Format: cell-based
# condition.notes: transfected COS-7 cells, 16 hours, luciferase activity; read-out: hPPAR; EC50 δ (agonist activity)
# Experimental: COS-7 cells, which is African green monkey kidney cell line, were used for all transfection assays. Cells were cultured in DMEM medium supplemented with 10% fetal bovine serum, glutamic acid, and an antibiotic under humidified 5% CO2 atmosphere. […] Transiently transfected cells were incubated with DMEM with 0.2% FCS with or without compound. And after 16 hours, luciferase activity and β-galactosidase activity of cell lysate were measured. […]
pEC50: −log10 of the molar value.
parameter: pEC50

compound: Cc1ccc2oc(N(CCCOc3ccc(F)cc3)Cc3cccc(OC(C)C(=O)O)c3)nc2c1 (centres unmarked)
pEC50: 5.85
--
compound: CCC(Oc1cccc(CN(CCCOc2ccc(F)cc2)c2nc3ccc(F)cc3o2)c1)C(=O)O (centres unmarked)
pEC50: 5.74
--
compound: COc1ccc(OCCCN(Cc2cccc(OC(C)(C)C(=O)O)c2)c2nc3ccccc3o2)cc1
pEC50: 5.82
--
compound: CC(Oc1cccc(CCN(CCOc2ccc(F)cc2)c2nc3ccccc3o2)c1)C(=O)O (centres unmarked)
pEC50: 5.80
--
compound: COc1ccc2oc(N(CCCOc3ccc(Cl)cc3)Cc3cccc(OC(C)C(=O)O)c3)nc2c1 (centres unmarked)
pEC50: 5.77
--
compound: CCC(Oc1cccc(CCN(CCOc2ccc(OC)cc2)c2nc3cc(Cl)ccc3o2)c1)C(=O)O (centres unmarked)
pEC50: 5.82
--
compound: CCC(Oc1cccc(CCN(CCCOc2ccc(OC)cc2)c2nc3cc(F)ccc3o2)c1)C(=O)O (centres unmarked)
pEC50: 5.82
--
compound: CCC(Oc1cccc(CN(CCOc2ccc(F)cc2)c2nc3ccccc3o2)c1)C(=O)O (centres unmarked)
pEC50: 5.74
--
compound: COc1ccc2oc(N(CCOc3ccccc3)CCc3cccc(OC(C)C(=O)O)c3)nc2c1 (centres unmarked)
pEC50: 5.80
--
compound: CCC(Oc1cccc(CCN(CCOc2ccc(OC)cc2)c2nc3cc(F)ccc3o2)c1)C(=O)O (centres unmarked)
pEC50: 5.74

(I) CCC(Oc1cccc(CN(CCCOc2ccccc2)c2nc3ccccc3o2)c1)C(=O)O (centres unmarked)
(II) CC(C)(Oc1ccc(CCCN(CCc2ccccc2)c2nc3ccccc3s2)cc1)C(=O)O
Of I and II , whose reported pEC50 is the larger number? Answer by quoting the chosen item's label.
II
(II: 6.40, I: 5.70)

Reference source for all entries: patent US7183295B2
